assay: Antagonist activity at nAChR in Sprague-Dawley rat striatal slices assessed as inhibition of S(-)-nicotine-evoked [3H]dopamine overflow at 100 uM by liquid scintillation counting; assay type: functional
Assign 1.0 to entries whose Imax meets or exceeds 60%; assign 0.0 to the rest.

Consider the worked cases shown below.
CHEMICAL_SMILES | CLASSIFICATION
Cc1ccc[n+](CCCCCCCC[n+]2cccc(C)c2)c1.[I-].[I-] | 0.0
CCCC[n+]1cccc([C@@H]2CCCN2C)c1.[I-] | 1.0
CCC[n+]1cccc([C@@H]2CCCN2C)c1.[I-] | 0.0
Cc1ccc[n+](CCCCCCCCCC[n+]2cccc(C)c2)c1.[I-].[I-] | 1.0
C=CCCCCCCCCC[n+]1cccc([C@@H]2CCCN2C)c1.[Br-] | 1.0
CN1CCC[C@H]1c1ccc[n+](Cc2ccccc2)c1.[Br-] | 0.0

Query: Assess whether reported Imax for [I-].[I-].c1ccc2c[n+](CCCCCC[n+]3ccc4ccccc4c3)ccc2c1 sits at 60% or higher.
Response: 0.0

Query: State whether the measured Imax reaches 60%, counting equality as reaching it, for CCCCCCCCCC[n+]1cccc(C)c1.[I-]
Response: 1.0

Query: Is it the case that [Br-].[Br-].c1cc[n+](CCCCCCCCCCCC[n+]2ccccc2)cc1 has Imax reaching or exceeding 60%?
Response: 1.0

Query: Evaluate [Br-].[Br-].c1ccc2c(c1)ccc[n+]2CCCCCCCCCCCC[n+]1cccc2ccccc21 : Imax at minimum 60%?
Response: 0.0

====

experiment: Antagonist activity at nAChR in Sprague-Dawley rat striatal slices assessed as inhibition of S(-)-nicotine-evoked [3H]dopamine overflow at 100 uM by liquid scintillation counting; assay type: functional
MEASURE_NAME: Imax (%)
API: value field is a number in %; no unit string.

CHEMICAL_SMILES | READING_UNIT | Imax
Cc1ccc[n+](CCCCCC[n+]2cccc(C)c2)c1.[I-].[I-] | % | 7
CCCCCCCC[n+]1cccc2c1CC[C@@H]1CCN(C)[C@H]21.[I-] | % | 88
CN1CCC[C@@H]1c1ccc[n+](CCCCCCCCCCCC[n+]2cccc([C@@H]3CCCN3C)c2)c1.[Br-].[Br-] | % | 38
CCCC[n+]1ccccc1.[I-] | % | 2
CCCCCCCCC[n+]1cccc2c1CC[C@@H]1CCN(C)[C@H]21.[I-] | % | 86

// sample CC[n+]1ccccc1.[I-] , its Imax was 0

CCCCCC[n+]1ccccc1.[I-] has a reported Imax of 21

Short answer for CCCCCCCCCC[n+]1cccc2c1CC[C@@H]1CCN(C)[C@H]21.[I-] : Imax was 93

For this molecule ( [Br-].[Br-].c1ccc2c[n+](CCCCCCCCCCC[n+]3ccc4ccccc4c3)ccc2c1 ), measured Imax is 55

Notebook: CCCCCCCCCCCC[n+]1cccc2c1CC[C@@H]1CCN(C)[C@H]21.[I-] , Imax read as 25

Sample CCCCC/C=C/CCC[n+]1cccc([C@@H]2CCCN2C)c1.[Br-] ; Imax observed: 85

Value of Imax reported for the molecule [I-].[I-].c1ccc2c(c1)ccc[n+]2CCCCCC[n+]1cccc2ccccc21 is 55

response.value for CCCCCC[n+]1cccc([C@@H]2CCCN2C)c1.[I-] (field: Imax) = 80

Form: molecule = CCCCCCC[n+]1cccc([C@@H]2CCCN2C)c1.[I-] ; Imax = 75

====

Measured Imax values are reported for all entries that follow.
assay: Antagonist activity at nAChR in Sprague-Dawley rat striatal slices assessed as inhibition of S(-)-nicotine-evoked [3H]dopamine overflow at 100 uM by liquid scintillation counting; type: functional
Note: unit % is implicit; provide only the numeric part.

# count of solved cases: 10
MOLECULE | Imax [%]
[Br-].[Br-].c1cc[n+](CCCCCCCCC[n+]2ccccc2)cc1 | 28
CCCCCCC#CCC[n+]1cccc([C@@H]2CCCN2C)c1.[Br-] | 29
CCCCCCCCC[n+]1cccc([C@@H]2CCCN2C)c1.[I-] | 100
CNC1CCCc2ncccc21.Cl (stereo unspecified) | 87
CNC1CCCc2ccncc21.Cl (stereo unspecified) | 57
CCCC/C=C\CC[n+]1cccc([C@@H]2CCCN2C)c1.[Br-] | 83
[I-].[I-].c1cc[n+](CCCCC[n+]2ccccc2)cc1 | 0
CCCCCCCCCCCC[n+]1cccc(C)c1.[I-] | 63
[Br-].[Br-].c1ccc2c[n+](CCCCCCCCC[n+]3ccc4ccccc4c3)ccc2c1 | 0
CCCCCCCC[n+]1cccc([C@@H]2CCCN2C)c1.[I-] | 88

API: the following record is the query input.
Measured Imax of C=CCCCCCCCC[n+]1cccc([C@@H]2CCCN2C)c1.[Br-] : 72

====

assay: Antagonist activity at nAChR in Sprague-Dawley rat striatal slices assessed as inhibition of S(-)-nicotine-evoked [3H]dopamine overflow at 100 uM by liquid scintillation counting; format: functional
Known Imax of a selection of compounds
Field: numeric (%). Do not append units.

Sample records with Imax:
COMPOUND | READING_UNIT | Imax
[I-].[I-].c1ccc2c(c1)ccc[n+]2CCCCCCCCCC[n+]1cccc2ccccc21 | % | 76
CCCCCCCCC[n+]1ccc2c(c1)[C@H]1[C@@H](CC2)CCN1C.[I-] | % | 56
Cc1ccc[n+](CCCCCCC[n+]2cccc(C)c2)c1.[Br-].[Br-] | % | 54

Sample CN1CCC[C@H]1c1ccc[n+](C)c1.[I-] ; Imax observed: 0

Lab note: measured Imax of CN(C)C1CCCc2ccncc21.Cl (stereo not given) was 68

====

test: Antagonist activity at nAChR in Sprague-Dawley rat striatal slices assessed as inhibition of S(-)-nicotine-evoked [3H]dopamine overflow at 100 uM by liquid scintillation counting; assay type: functional
MEASURE_NAME: Imax

Consider the reported Imax for these molecules:
MOLECULE | Imax
CNC1(C)C2CCC(C2)C1(C)C (stereo not given) | 91%
C[n+]1ccccc1.[I-] | 0%
CCCCCCCCCC[n+]1ccc2c(c1)[C@H]1[C@@H](CC2)CCN1C.[I-] | 67%
[I-].[I-].c1cc[n+](CCCCCCCCCC[n+]2ccccc2)cc1 | 27%
CCCCCCC[n+]1ccccc1.[I-] | 0%

Looking up [I-].[I-].c1ccc2c[n+](CCCCCCCC[n+]3ccc4ccccc4c3)ccc2c1 , I see its Imax listed as 74%

The molecule Cc1ccc[n+](CCCCCCCCCCCC[n+]2cccc(C)c2)c1.[Br-].[Br-] showed Imax equal to 78%

// CCCC/C=C/CC[n+]1cccc([C@@H]2CCCN2C)c1.[Br-] : Imax value = 79%

Lookup result for CCCCCCCCCCCCCCC[n+]1ccccc1.[I-] ; measured Imax: 58%

Recorded result, C=CC[n+]1cccc([C@@H]2CCCN2C)c1.[I-] , Imax: 0%

// Imax value for [I-].[I-].c1ccc2c[n+](CCCCCCCCCC[n+]3ccc4ccccc4c3)ccc2c1 : 65%

Measured Imax, CCCCCCCCCCCCCCCCCCCC[n+]1ccccc1.[Br-] : 60%

Data point: CCCCCCCCCCC[n+]1ccc2c(c1)[C@H]1[C@@H](CC2)CCN1C.[I-] ; Imax = 72%

response.value for [Br-].[Br-].c1ccc2c[n+](CCCCCCCCCCCC[n+]3ccc4ccccc4c3)ccc2c1 (field: Imax) = 53%

Field Imax (entry [Br-].[Br-].c1ccc2c(c1)ccc[n+]2CCCCCCCCC[n+]1cccc2ccccc21 ) reads 58%

Lab note: CCCCCCCC[n+]1ccccc1.[I-] gave Imax of 0%

Looking up Cc1ccc[n+](CCCCCCCCCCC[n+]2cccc(C)c2)c1.[Br-].[Br-] , I found its Imax recorded as 68%

Record C=CCCCCCC[n+]1cccc([C@@H]2CCCN2C)c1.[Br-] , field Imax: 87%

Memo: [I-].[I-].c1cc[n+](CCCCCCCC[n+]2ccccc2)cc1 , reported Imax: 0%

====

test: Antagonist activity at nAChR in Sprague-Dawley rat striatal slices assessed as inhibition of S(-)-nicotine-evoked [3H]dopamine overflow at 100 uM by liquid scintillation counting; format: functional
Values of Imax strictly less than 50% map to true (1), and values of at least 50% map to false (0).

COMPOUND | CLASSIFICATION
CCCCCCCCCCCC[n+]1ccc2c(c1)[C@H]1[C@@H](CC2)CCN1C.[I-] | false (0)
CCCCC[n+]1ccccc1.[I-] | true (1)
[I-].[I-].c1ccc2c(c1)ccc[n+]2CCCCCCCC[n+]1cccc2ccccc21 | false (0)
CCC[n+]1ccccc1.[I-] | true (1)
CCCCC#CCC[n+]1cccc([C@@H]2CCCN2C)c1.[Br-] | true (1)
Cl.NC1CCCc2ccncc21 (stereo unspecified) | false (0)

Query: Input CCCCCCCCCCCC[n+]1cccc([C@@H]2CCCN2C)c1.[I-] ; condition: Imax strictly below 50%. Does it hold?
Response: false (0)

Query: Find out if reported Imax for CCCCCCCCCCC[n+]1cccc2c1CC[C@@H]1CCN(C)[C@H]21.[I-] is less than 50%
Response: false (0)

Query: State whether 50% exceeds Imax recorded for Cc1ccc[n+](CCCCCCCCC[n+]2cccc(C)c2)c1.[Br-].[Br-] .
Response: false (0)

Query: Take the compound Cl.NC1CCCc2ncccc21 (stereo unspecified) and say whether its Imax is less than 50%.
Response: false (0)

Query: Determine if CN(C)C1CCCc2ncccc21.Cl (stereo unspecified) shows Imax strictly lower than 50%.
Response: false (0)
